Would you kindly list UI for each of these compounds?
System: Rattus norvegicus
Assay Comment: Gastrointestinal toxicity in Wistar albino rat assessed as stomach ulcer index at 0.029 mmol/kg, po followed by another two compound doses in second and third days measured on fourth day post dose by acute ulcerogenicity study
Assay type: organism-based
Experimental Conditions: in vivo
No unit in the answer, please; the number alone is enough.

Consider the compound O=C(O)Cc1nc2c(c(=O)[nH]1)C1CCCN1C(=O)N2c1ccccc1 (stereo unspecified) and give its recorded UI. 10.49

Consider the compound COc1ccc2c(c1)c(CC(=O)O)c(C)n2C(=O)c1ccc(Cl)cc1 [INDOMETHACIN] and give its recorded UI. 14.73

Consider the compound Cc1cc(-c2ccccc2)nn1C(=O)c1nc2c(c(=O)[nH]1)C1CCCN1C(=O)N2c1ccccc1 (stereo unspecified) and give its recorded UI. 10.94

Consider the compound Cc1c(NC(=O)c2nc3c(c(=O)[nH]2)C2CCCN2C(=O)N3c2ccccc2)c(=O)n(-c2ccccc2)n1C (stereo unspecified) and give its recorded UI. 7.16

Consider the compound CCOC(=O)Cc1nc2c(c(=O)[nH]1)C1CCCN1C(=O)N2c1ccccc1 (stereo unspecified) and give its recorded UI. 7

Consider the compound Cc1ccc(-c2cc(C(F)(F)F)nn2-c2ccc(S(N)(=O)=O)cc2)cc1 [CELECOXIB] and give its recorded UI. 11.13

###

Assay Comment: Lipophilicity, log P of the compound
Assay type: physicochemical
Experimental Conditions: octanol/water
Class yes (1): logP at least 2. Class no (0): logP below 2.

Does the reported logP for Cc1cc(-c2ccccc2)nn1C(=O)c1nc2c(c(=O)[nH]1)C1CCCN1C(=O)N2c1ccccc1 (stereo not drawn) fall at or above the 2 mark? yes (1)

Does the reported logP for Cc1cc(C)n(C(=O)c2nc3c(c(=O)[nH]2)C2CCCN2C(=O)N3c2ccccc2)n1 (stereo not drawn) fall at or above the 2 mark? no (0)

Does the reported logP for CCOC(=O)C/C(C)=N/NC(=O)c1nc2c(c(=O)[nH]1)C1CCCN1C(=O)N2c1ccccc1 (stereo not drawn) fall at or above the 2 mark? no (0)

Does the reported logP for Cc1c(NC(=O)c2nc3c(c(=O)[nH]2)C2CCCN2C(=O)N3c2ccccc2)c(=O)n(-c2ccccc2)n1C (stereo not drawn) fall at or above the 2 mark? yes (1)

Does the reported logP for CCO/C=N/NC(=O)c1nc2c(c(=O)[nH]1)C1CCCN1C(=O)N2c1ccccc1 (stereo not drawn) fall at or above the 2 mark? no (0)

Does the reported logP for COc1ccc(/C=N/NC(=O)c2nc3c(c(=O)[nH]2)C2CCCN2C(=O)N3c2ccccc2)cc1 (stereo not drawn) fall at or above the 2 mark? yes (1)

Does the reported logP for O=C(N/N=C/c1ccccc1O)c1nc2c(c(=O)[nH]1)C1CCCN1C(=O)N2c1ccccc1 (stereo not drawn) fall at or above the 2 mark? yes (1)

Does the reported logP for O=C(NN=C(c1ccccc1)c1ccccc1)c1nc2c(c(=O)[nH]1)C1CCCN1C(=O)N2c1ccccc1 (stereo not drawn) fall at or above the 2 mark? yes (1)

###

System: Rattus norvegicus
Assay Comment: Antiinflammatory activity in Wistar albino rat assessed as inhibition of carrageenan-induced paw edema at 2 mg/kg, po dosed 1 hr before carrageenan challenge measured after carrageenan-induced inflammation
Format: functional
Metric: inhibition in vivo at 2 mg/kg
Form field: result (number plus unit)

Consider the molecule Cc1c(NC(=O)c2nc3c(c(=O)[nH]2)C2CCCN2C(=O)N3c2ccccc2)c(=O)n(-c2ccccc2)n1C (centres undefined) and give its recorded inhibition in vivo at 2 mg/kg. 48%

Consider the molecule O=C(O)Cc1nc2c(c(=O)[nH]1)C1CCCN1C(=O)N2c1ccccc1 (centres undefined) and give its recorded inhibition in vivo at 2 mg/kg. 40%

Consider the molecule CCOC(=O)Cc1nc2c(c(=O)[nH]1)C1CCCN1C(=O)N2c1ccccc1 (centres undefined) and give its recorded inhibition in vivo at 2 mg/kg. 32%

Consider the molecule Cc1cc(-c2ccccc2)nn1C(=O)c1nc2c(c(=O)[nH]1)C1CCCN1C(=O)N2c1ccccc1 (centres undefined) and give its recorded inhibition in vivo at 2 mg/kg. 45%

###

Would you kindly list inhibition in vivo at 29 µmol/kg for each of these compounds?
Test system: Mus musculus
Assay Comment: Analgesic activity in Swiss albino mouse assessed as inhibition of acetic acid-induced writhing at 0.029 mmol/kg. po dosed 1 hr before acetic acid challenge and measured during 30 mins post acetic acid challenge
Format: functional

Quote Mus musculus inhibition in vivo at 29 µmol/kg for entry COc1ccc2c(c1)c(CC(=O)O)c(C)n2C(=O)c1ccc(Cl)cc1 . 66.1%

Quote Mus musculus inhibition in vivo at 29 µmol/kg for entry C/C(=N\NC(=O)c1nc2c(c(=O)[nH]1)C1CCCN1C(=O)N2c1ccccc1)c1ccccc1 (stereo not given) . 67.5%

Quote Mus musculus inhibition in vivo at 29 µmol/kg for entry CCOC(=O)c1nc2c(c(=O)[nH]1)C1CCCN1C(=O)N2c1ccccc1 (stereo not given) . 29.4%

Quote Mus musculus inhibition in vivo at 29 µmol/kg for entry O=C(O)Cc1nc2c(c(=O)[nH]1)C1CCCN1C(=O)N2c1ccccc1 (stereo not given) . 57.6%

Quote Mus musculus inhibition in vivo at 29 µmol/kg for entry O=C(N/N=C/c1ccccc1O)c1nc2c(c(=O)[nH]1)C1CCCN1C(=O)N2c1ccccc1 (stereo not given) . 68.9%

###

Would you kindly list IC50 for each of these compounds?
Test system: Rattus norvegicus
Assay Comment: Antiinflammatory activity in po dosed Wistar albino rat assessed as inhibition of carrageenan-induced paw edema dosed 1 hr before carrageenan challenge measured after carrageenan-induced inflammation
Format: functional, organism-based
The answer is to be given in µmol/kg; state only the numeric part.

Consider the compound Cc1c(NC(=O)c2nc3c(c(=O)[nH]2)C2CCCN2C(=O)N3c2ccccc2)c(=O)n(-c2ccccc2)n1C (centres undefined) and give its recorded IC50. 6

Consider the compound O=C(O)Cc1nc2c(c(=O)[nH]1)C1CCCN1C(=O)N2c1ccccc1 (centres undefined) and give its recorded IC50. 10

Consider the compound CCOC(=O)Cc1nc2c(c(=O)[nH]1)C1CCCN1C(=O)N2c1ccccc1 (centres undefined) and give its recorded IC50. 11

Consider the compound Cc1cc(-c2ccccc2)nn1C(=O)c1nc2c(c(=O)[nH]1)C1CCCN1C(=O)N2c1ccccc1 (centres undefined) and give its recorded IC50. 8

###

Would you kindly list writhing inhibition relative to indomethacin (potency %) at 29 µmol/kg for each of these compounds?
Test system: Mus musculus
Assay Comment: Analgesic activity in Swiss albino mouse assessed as inhibition of acetic acid-induced writhing at 0.029 mmol/kg. po dosed 1 hr before acetic acid challenge and measured during 30 mins post acetic acid challenge relative to indomethacin
Assay type: functional
Experimental Conditions: read-out: INH
The answer is to be given in %; state only the numeric part.

Consider the compound C/C(=N\NC(=O)c1nc2c(c(=O)[nH]1)C1CCCN1C(=O)N2c1ccccc1)c1ccccc1 (stereo unspecified) and give its recorded writhing inhibition relative to indomethacin (potency %) at 29 µmol/kg. 102

Consider the compound C/C(=N\NC(=O)c1nc2c(c(=O)[nH]1)C1CCCN1C(=O)N2c1ccccc1)c1ccc(Cl)cc1 (stereo unspecified) and give its recorded writhing inhibition relative to indomethacin (potency %) at 29 µmol/kg. 94

Consider the compound Cc1cc(C)n(C(=O)c2nc3c(c(=O)[nH]2)C2CCCN2C(=O)N3c2ccccc2)n1 (stereo unspecified) and give its recorded writhing inhibition relative to indomethacin (potency %) at 29 µmol/kg. 94

Consider the compound COc1ccc(/C=N/NC(=O)c2nc3c(c(=O)[nH]2)C2CCCN2C(=O)N3c2ccccc2)cc1O (stereo unspecified) and give its recorded writhing inhibition relative to indomethacin (potency %) at 29 µmol/kg. 66.2

Consider the compound O=C(N/N=C/c1ccc(Cl)cc1)c1nc2c(c(=O)[nH]1)C1CCCN1C(=O)N2c1ccccc1 (stereo unspecified) and give its recorded writhing inhibition relative to indomethacin (potency %) at 29 µmol/kg. 52.7

Consider the compound O=C(O)Cc1nc2c(c(=O)[nH]1)C1CCCN1C(=O)N2c1ccccc1 (stereo unspecified) and give its recorded writhing inhibition relative to indomethacin (potency %) at 29 µmol/kg. 87.2

Consider the compound CCOC(=O)Cc1nc2c(c(=O)[nH]1)C1CCCN1C(=O)N2c1ccccc1 (stereo unspecified) and give its recorded writhing inhibition relative to indomethacin (potency %) at 29 µmol/kg. 107

Consider the compound O=C1CC(O)=NN1C(=O)c1nc2c(c(=O)[nH]1)C1CCCN1C(=O)N2c1ccccc1 (stereo unspecified) and give its recorded writhing inhibition relative to indomethacin (potency %) at 29 µmol/kg. 93.6

Consider the compound COc1ccc(/C=N/NC(=O)c2nc3c(c(=O)[nH]2)C2CCCN2C(=O)N3c2ccccc2)cc1 (stereo unspecified) and give its recorded writhing inhibition relative to indomethacin (potency %) at 29 µmol/kg. 109

Consider the compound CCOC(=O)c1nc2c(c(=O)[nH]1)C1CCCN1C(=O)N2c1ccccc1 (stereo unspecified) and give its recorded writhing inhibition relative to indomethacin (potency %) at 29 µmol/kg. 44.5

Consider the compound Cc1cc(=O)n(C(=O)c2nc3c(c(=O)[nH]2)C2CCCN2C(=O)N3c2ccccc2)[nH]1 (stereo unspecified) and give its recorded writhing inhibition relative to indomethacin (potency %) at 29 µmol/kg. 92.2
